Catalogue of binders with associated human MASP1 IC50
Target: T1, recombinant human MASP1 active protease (amino acids 297-699, C-terminal His Tag) (human, UniProt P48740 297-699)
T1 sequence: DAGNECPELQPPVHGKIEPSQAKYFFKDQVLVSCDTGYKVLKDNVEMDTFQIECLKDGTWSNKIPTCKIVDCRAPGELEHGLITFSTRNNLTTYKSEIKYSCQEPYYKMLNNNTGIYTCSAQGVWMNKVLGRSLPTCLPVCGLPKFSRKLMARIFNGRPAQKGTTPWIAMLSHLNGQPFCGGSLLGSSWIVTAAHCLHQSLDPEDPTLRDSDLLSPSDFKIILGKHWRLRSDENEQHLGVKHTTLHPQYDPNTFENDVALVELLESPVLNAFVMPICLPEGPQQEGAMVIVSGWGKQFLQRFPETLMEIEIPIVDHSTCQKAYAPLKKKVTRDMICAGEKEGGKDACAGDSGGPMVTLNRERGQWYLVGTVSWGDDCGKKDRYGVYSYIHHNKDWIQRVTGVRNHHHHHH
Experiment: cell-based or functional assay
Bridge positions count the residues as written; N and C are the ends. Square brackets hold non-standard residues; d marks the D form. Ends that are not written are not given here. Pen = CC(C)(S)[C@H](N)C(=O)O; Sar = CNCC(=O)O
Express your answer in nM, writing the number without its unit.

binder	human MASP1 IC50 (nM)
[Sar]I[Pen]SRSLPPICIPD-OH (disulfide 3-11; N-terminus assumed; SMILES CC[C@H](C)[C@H](NC(=O)CNC)C(=O)N[C@@H]1C(=O)N[C@@H](CO)C(=O)N[C@@H](CCCNC(=N)N)C(=O)N[C@@H](CO)C(=O)N[C@@H](CC(C)C)C(=O)N2CCC[C@H]2C(=O)N2CCC[C@H]2C(=O)N[C@@H]([C@@H](C)CC)C(=O)N[C@H](C(=O)N[C@H](C(=O)N2CCC[C@H]2C(=O)N[C@@H](CC(=O)O)C(=O)O)[C@@H](C)CC)CSSC1(C)C) [Example 402: ((N-Me)G)-I-(Pen)+SRSLPPIC+IPD-OH]	58

Requested field: human MASP1 IC50. Item: [Sar]ICSRSLP[(1R,3S,5R)‑2‑Azabicyclo(3.1.0)hexane‑3‑carboxylic acid]ICIPD-OH (disulfide 3-11) [Example 324: ((N-Me)G)-IC+SRSLP-((1R,3S,5R)-2-Azabicyclo[3.1.0]hexane-3-carboxylic acid)-IC+IPD-OH]
23
